Tested on: birch pollen allergic volunteers
Assay: Skin prick tests (SPT) of allergic patients
Settings: dilution 1:10; 20 volunteers
Quick reference: Positive skin reactions (subjects) of the listed items.
assay_endpoint: Positive skin reactions (subjects)

| molecule | endpoint_value |
| --- | --- |
| AllerT2: SEQ ID NO: 2, aa 48-118 of SEQ ID 9 (Bet v 1) contiguous overlapping peptide (peptide) NGGPGTIKKISFPEGFPFKYVKDRVDEVDHTNFKYNYSVIEGGPIGDTLEKISNEIKIVATPDGGSILKIS | 0 |
| AllerT5: SEQ ID NO: 5, aa 65-160 of SEQ ID 9 (Bet v 1) contiguous overlapping peptide (peptide) FKYVKDRVDEVDHTNFKYNYSVIEGGPIGDTLEKISNEIKIVATPDGGSILKISNKYHTKGDHEVKAEQVKASKEMGETLLRAVESYLLAHSDAYN | 0 |
| r Bet v 1: Purified recombinant Bet v 1, birch pollen major allergen, purchased from BIOMAY; SEQ ID 9, Swissprot P15494 (protein) MGVFNYETETTSVIPAARLFKAFILDGDNLFPKVAPQAISSVENIEGNGGPGTIKKISFPEGFPFKYVKDRVDEVDHTNFKYNYSVIEGGPIGDTLEKISNEIKIVATPDGGSILKISNKYHTKGDHEVKAEQVKASKEMGETLLRAVESYLLAHSDAYN | 16 |
| AllerT4: SEQ ID NO: 4, aa 2-85 of SEQ ID 9 (Bet v 1) contiguous overlapping peptide (peptide) GVFNYETETTSVIPAARLFKAFILDGDNLFPKVAPQAISSVENIEGNGGPGTIKKISFPEGFPFKYVKDRVDEVDHTNFKYNYS | 0 |
